B1: EEHEE_rd4_0363 (parent)
chain: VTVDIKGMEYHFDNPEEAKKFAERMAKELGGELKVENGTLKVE

variants of: B1; assay: folding stability dG (cDNA display proteolysis); higher = more stable; details: PBS, room temperature
We begin with a simple list: items and their reported folding stability dG.
Recorded endpoint: folding stability dG (kcal/mol)

> print(dat)
    mutation.key     recorded.endpoint  unit.string  reported.value
 1           I5V  folding stability dG     kcal/mol            1.88
 2          A18R  folding stability dG     kcal/mol          -0.072
 3           I5F  folding stability dG     kcal/mol            1.44
 4          P15E  folding stability dG     kcal/mol            2.12
 5          G30E  folding stability dG     kcal/mol            1.41
 6          K41Y  folding stability dG     kcal/mol            1.92
 7           D4W  folding stability dG     kcal/mol            3.59
 8          E43S  folding stability dG     kcal/mol            2.11
 9          P15F  folding stability dG     kcal/mol            3.22
10          T39M  folding stability dG     kcal/mol            2.24
